Test system: CD2F1 mice, L1210 leukemia ip, survival T/C
Assay: NCI In Vivo Anticancer Drug Screen. Data for tumor model L1210 Leukemia (intraperitoneal) in CD2F1 (CDF1) mice
Conditions: endpoint: mean survival time; dose: 400.0 mg/kg/injection; schedule: Q01DX009 (ip); vehicle: saline sonified; higher = longer survival
Inconclusive results and toxic doses are left out.
So I've got a bunch of compounds here, and I need their T/C values.

A selection of reference data follows.
• CCCCCCCCC/C(C)=N\NC(=O)c1ccccc1 = 108 % of control
• CC(C)N1CCC1C(=O)O (centres undefined) = 97 % of control
• C=C(Br)CC1CCCCC1=O (centres undefined) = 100 % of control

Read the next record carefully.
Query C=CCS(=O)(=O)O yields T/C of 96 % of control

====

Tested on: CD2F1 mice, L1210 leukemia ip, survival T/C
Assay: NCI In Vivo Anticancer Drug Screen. Data for tumor model L1210 Leukemia (intraperitoneal) in CD2F1 (CDF1) mice
Conditions: endpoint: mean survival time; dose: 50.0 mg/kg/injection; schedule: Q01DX001 (ip); vehicle: carboxymethylcellulose (CMC); higher = longer survival
Method: The antitumor activity of compounds was measured in mice bearing transplantable tumors. Survival or tumor size were measured and the results are expressed as the measurement made in the treated group (T) divided by the measurement made in the vehicle treated control group (C). The tumor model used in this assay is L1210 Leukemia (intraperitoneal) in CD2F1 (CDF1) mice
Inconclusive results and toxic doses are left out.
TEST_READOUT: T/C

• COCCCNc1ccc([N+](=O)[O-])cn1 = 100 % of control

Go through the list and state T/C for each entry.
1. OCC1CCCCCCC1
2. O=C(O)C(Br)C(Br)C(=O)O (centres undefined)
3. CCCCCCCCSC#N

A)
1. 100 % of control
2. 98 % of control
3. 100 % of control

====

So I've got a bunch of compounds here, and I need their T/C values.
Tested on: CD2F1 mice, L1210 leukemia ip, survival T/C
Test: NCI In Vivo Anticancer Drug Screen. Data for tumor model L1210 Leukemia (intraperitoneal) in CD2F1 (CDF1) mice
Settings: endpoint: mean survival time; dose: 400.0 mg/kg/injection; schedule: Q01DX001 (ip); vehicle: Klucel (hydroxypropylcellulose) (HPC); higher = longer survival
Toxic doses and inconclusive results are not listed.

- CCOC(=O)/C(C#N)=C/NC(N)=O: 88 % of control
- CCCCCCCCCCCCCCCCCCN=C(N)N: 88 % of control
- O=C(Nc1ccc(Cl)cc1[N+](=O)[O-])c1ccc2ccccc2c1O: 100 % of control
- CCOC(=O)Nc1cc(NCC(=O)CCc2ccccc2)c([N+](=O)[O-])c(N)n1: 91 % of control
- Cc1ccc(S(=O)(=O)OCCOc2ccc(C(C)(C)CC(C)(C)C)cc2)cc1: 94 % of control

Read the next record carefully.
The reported T/C value, CD2F1 mice, L1210 leukemia ip, survival T/C, for CC(C)(C)OC(=O)N/N=C/c1ccc2c(c1)CCC2 reads 104 % of control

====

Test system: CD2F1 mice, L1210 leukemia ip, survival T/C
Assay: NCI In Vivo Anticancer Drug Screen. Data for tumor model L1210 Leukemia (intraperitoneal) in CD2F1 (CDF1) mice
Conditions: endpoint: mean survival time; dose: 100.0 mg/kg/injection; schedule: Q01DX009 (ip); vehicle: water; higher = longer survival
Inconclusive results and toxic doses are left out.
TEST_READOUT: T/C

* Nc1nc(N)c(NC=O)c(N)n1 | 103 % of control
* Cc1cnccc1Br | 86 % of control
* CCCCN=[N+]=[N-] | 96 % of control
* COc1ccc(CCN(C=O)c2ccc(OC)c(OC)c2)cc1OC | 100 % of control
* CC1C(c2ccccc2)OP(=O)(N(CCCl)CCCl)N1C (configuration not stated) | 88 % of control
* COc1ccc(CC(=O)Nc2ccc(OC)c(OC)c2)cc1OC | 95 % of control

Read the next record carefully.
The reported T/C value, CD2F1 mice, L1210 leukemia ip, survival T/C, for [O-]c1cc2c3c(c1)c1cc4c(cc1c[n+]3C=C2)OCO4 reads 124 % of control

====

So I've got a bunch of compounds here, and I need their T/C values.
Test system: CD2F1 mice, L1210 leukemia ip, survival T/C
Assay: NCI In Vivo Anticancer Drug Screen. Data for tumor model L1210 Leukemia (intraperitoneal) in CD2F1 (CDF1) mice
Conditions: endpoint: mean survival time; dose: 12.5 mg/kg/injection; schedule: Q04DX003 (ip); vehicle: saline; higher = longer survival
Inconclusive results and toxic doses are left out.

A selection of reference data follows.
* CC(O)c1ccc[n+](CCc2cn(C)c3ccccc23)c1 (configuration not stated) | 92 % of control
* NCCS[As](=O)(O)SCCN | 101 % of control
* c1ccc2c(CC[n+]3cccc(C4OCCO4)c3)c[nH]c2c1 | 92 % of control
* CCCCCCCCCCCCNC(=O)c1cc[n+](C)cc1 | 98 % of control
* O=S(=O)(O)c1ccc(-c2ccc(S(=O)(=O)O)cc2)cc1 | 100 % of control

Go through the list and state T/C for each entry.
1. CCC(C)C(C(=O)OCC[N+](C)(CC)CC)c1ccc(C)c(C)c1 (configuration not stated)
2. O=C(CBr)c1ccc(I)cc1

A)
1. 93 % of control
2. 94 % of control

====

Tested on: CD2F1 mice, L1210 leukemia ip, survival T/C
Assay: NCI In Vivo Anticancer Drug Screen. Data for tumor model L1210 Leukemia (intraperitoneal) in CD2F1 (CDF1) mice
Conditions: endpoint: mean survival time; dose: 100.0 mg/kg/injection; schedule: Q01DX009 (ip); vehicle: saline with Tween-80; higher = longer survival
Toxic doses and inconclusive results are not listed.
So I've got a bunch of compounds here, and I need their T/C values.

A selection of reference data follows.
- CC#CC(=O)SCCNC(=O)CCNC(C)=O: 119 % of control
- CC(C)(C)c1ccc(SCC#CCOc2ccc(Cl)cc2)cc1: 95 % of control
- CCn1c(C)nc2cc(C(N)=O)ccc21: 97 % of control
- NC(=O)N/N=C1\CC2C=CCC12 (centres undefined): 95 % of control
- NC(=O)N/N=C\c1ccc(O)cn1: 93 % of control
- Nc1ccccc1O: 114 % of control

Go through the list and state T/C for each entry.
1. CC(C)(C)C(O)CC(O)(C(F)(F)Cl)C(F)(F)Cl (centres undefined)
2. O=c1cc[nH]cc1[N+](=O)[O-]
3. NN1C(=O)Cc2ccccc2C1=O
4. O=C1COC(C(Cl)(Cl)Cl)CN1 (centres undefined)
5. CC(C)(C)CC(C)(C)c1ccc(OCCOS(=O)(=O)c2cccc([N+](=O)[O-])c2)cc1

A)
["101 % of control", "101 % of control", "103 % of control", "98 % of control", "89 % of control"]

Go through the list and state T/C for each entry.
1. Cc1ccccc1C1(O)CCCCC1
2. CCCCCCCCCCCCCCCCCCCCCC(O)(CC)CC

A)
1: 90 % of control; 2: 97 % of control

Query CN(C)CCSCC(OC(=O)c1ccccc1)c1ccccc1 (centres undefined) yields T/C of 100 % of control

====

So I've got a bunch of compounds here, and I need their T/C values.
Tested on: CD2F1 mice, L1210 leukemia ip, survival T/C
Assay: NCI In Vivo Anticancer Drug Screen. Data for tumor model L1210 Leukemia (intraperitoneal) in CD2F1 (CDF1) mice
Details: endpoint: mean survival time; dose: 200.0 mg/kg/injection; schedule: Q04DX003 (ip); vehicle: saline; higher = longer survival
Inconclusive results and toxic doses are left out.

- C[N+](C)(C)CC[N+](C)(C)C: 97 % of control
- CCOC1OC(C(O)CO)C(O)C(O)C1O (configuration not stated): 103 % of control

Go through the list and state T/C for each entry.
1. Nc1ccccc1O
2. O=C(O)CCC(=O)NO
3. NC(=O)c1ncc(-c2ccccc2)[nH]c1=O
4. Cc1ccccc1S(=O)(=O)/C(=C(/I)c1ccccc1)c1ccccc1
5. O=S(=O)(O)c1ccc(-c2ccc(S(=O)(=O)O)cc2)cc1
6. CC(=O)N(CC(C)C)N=O

A)
96 % of control
109 % of control
98 % of control
98 % of control
100 % of control
97 % of control

Go through the list and state T/C for each entry.
1. FC(F)(F)COP1(OCC(F)(F)F)=NP(OCC(F)(F)F)(OCC(F)(F)F)=NP(c2ccccc2)(c2ccccc2)=N1
2. CCN(CC)CCNCc1c[nH]c(=S)[nH]c1=O
3. COC1OC2COC(C)(c3ccccc3)OC2C(O)C1[NH-].COC1OC2COC(C)(c3ccccc3)OC2C(O)C1[NH-].[Cl][Pt+2][Cl] (configuration not stated)
4. O=[N+]([O-])O.[La]
5. COC1OC(CO)C(O)C(O)C1O (configuration not stated)
6. CCC/C=C\CC(C)C(C)CC (configuration not stated)
7. COc1ccc2c(c1)CCc1cn[nH]c1-2
8. CC1=CCC2(C)CCC(C(C)C)C2(O)CC1 (configuration not stated)

A)
100 % of control
97 % of control
102 % of control
98 % of control
102 % of control
108 % of control
106 % of control
93 % of control

Attribution: PubChem BioAssay AID256
